Values compiled from the supplement of paper PMC12645437.

Biological target: T1, CRBN, Q96SW2;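 also: pooled lentiviral library of zinc finger degron-EGFP fusions in mCherry-positive Jurkat cells, FACS-sorted after compound exposure, with degron abundance counted by next-generation sequencing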
T1 chain: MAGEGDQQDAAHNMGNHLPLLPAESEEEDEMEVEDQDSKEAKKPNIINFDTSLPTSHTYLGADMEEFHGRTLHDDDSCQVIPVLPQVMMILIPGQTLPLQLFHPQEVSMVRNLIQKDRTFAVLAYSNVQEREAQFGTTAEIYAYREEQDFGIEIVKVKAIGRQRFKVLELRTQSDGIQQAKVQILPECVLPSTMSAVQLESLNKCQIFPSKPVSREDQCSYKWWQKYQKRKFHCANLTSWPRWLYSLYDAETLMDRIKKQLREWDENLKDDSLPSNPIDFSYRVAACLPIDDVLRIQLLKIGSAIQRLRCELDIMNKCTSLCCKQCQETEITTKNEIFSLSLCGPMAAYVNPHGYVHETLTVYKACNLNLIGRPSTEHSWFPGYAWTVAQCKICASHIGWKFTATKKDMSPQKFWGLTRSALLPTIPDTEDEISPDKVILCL
Experiment: log2 fold change of degron read counts, EGFP-low vs EGFP+ sorted cells (limma voom), compound-induced degradation; higher = more compound-induced degradation of the degron-EGFP fusion; degrons are variants of IKZF1/3 zinc finger 2; compound dose not given here
Conditions: Jurkat; 18 h; compound: compound 19 (5-tert-butyl-thalidomide)
Over roughly 8,300 sequences, “log2 fold change of degron read counts, EGFP-low vs EGFP+ sorted cells (limma voom), compound-induced degradation” has its median near -1.1; the highest 2% begin near 3.2. Only a selection was taken, and the highest values are over-represented in it overall.
Assay metric: log2 fold change of degron read counts

Biosequence	Assay metric	Test result
FTCEICGAFFTQKGNLLRHIKL [46F_47T_49E_50I_52G_53A_54F_55F_67L_, Q9UKT9]	log2 fold change of degron read counts	-0.327
FACPICGAPFTQKGNLLRHIKL [46F_47A_49P_50I_52G_53A_54P_55F_67L_, Q9UKT9]	log2 fold change of degron read counts	3.7
FQCPVCGACFTQKGNLLRHIKL [46F_47Q_49P_50V_52G_53A_54C_55F_67L_, Q9UKT9]	log2 fold change of degron read counts	0.553
FQCPICGAPFTQKGNLLRHIKL [46F_47Q_49P_50I_52G_53A_54P_55F_67L_, Q9UKT9]	log2 fold change of degron read counts	3.38
FSCPICGRCFTQKGNLLRHIKL [46F_47S_49P_50I_52G_53R_54C_55F_67L_, Q9UKT9]	log2 fold change of degron read counts	-0.773
FICPICGAPFTQKGNLLRHIKL [46F_47I_49P_50I_52G_53A_54P_55F_67L_, Q9UKT9]	log2 fold change of degron read counts	1.94
FNCPVCGACFTQKGNLLRHIKL [46F_47N_49P_50V_52G_53A_54C_55F_67L_, Q9UKT9]	log2 fold change of degron read counts	1.6
